# System: DIV14
# procedure-summary: qHTS profiling for inhibitors of Plasmodium falciparum proliferation (AID 504749); also: nearly all actives have a fitted effect of over 60% in size
# condition-parameters: P. falciparum in erythrocytes, SYBR Green DNA, 72 h; series mostly up to 12.8 µM
Results filed as inconclusive are left out. The source made the active and inactive calls. Calls follow the shape of the dose curve; as a rule, active = well fitted inhibition curve with a large enough effect; inconclusive = small, poorly fitted or top-dose-only effect; inactive = flat fitted curve, though single readings scatter.
measured-property: outcome

O=C(O)[C@@H]1CCCN1: inactive
CC=C(/C(=C/C)c1ccc(O)cc1)c1ccc(O)cc1: inactive
CC(C)(C)NC(=O)[C@@H]1CC[C@@H]2[C@@H]3CC[C@@H]4NC(=O)C=C[C@@]4(C)[C@H]3CC[C@]21C: inactive

----------
# System: N140
# procedure-summary: qHTS profiling for inhibitors of Plasmodium falciparum proliferation (AID 504749); also: nearly all actives have a fitted effect of over 60% in size
# condition-parameters: P. falciparum in erythrocytes, SYBR Green DNA, 72 h; series mostly up to 12.8 µM
Inconclusive results are not listed. Calls of active or inactive are those of the source. Calls follow the shape of the dose curve; as a rule, active = well fitted inhibition curve with a large enough effect; inconclusive = small, poorly fitted or top-dose-only effect; inactive = flat fitted curve, though single readings scatter.
Entry note: the call must match one of active, inactive

C1CCN2C[C@@H]3C[C@@H](CN4CCCC[C@H]34)[C@H]2C1: inactive
COc1ccc(C[C@@](C)(N)C(=O)O)cc1OC: inactive
CO[C@H]1[C@@H](OC(N)=O)[C@H](O)[C@@H](Oc2ccc3c(O)c(NC(=O)c4ccc(O)c(CC=C(C)C)c4)c(=O)oc3c2C)OC1(C)C: inactive

Task item: Called result for COc1ccc(CC(N)C(=O)NC2C(CO)OC(n3cnc4c(N(C)C)ncnc43)C2O)cc1 (stereo unspecified)
Reply: active

Task item: Call for entry CC[C@@]12CCCN3CCc4c(n(c5ccccc45)[C@](O)(C(=O)OC)C1)C32 (stereo partly specified) :
Reply: inactive

Task item: Entry C=Cc1c(C)c2cc3nc(cc4[nH]c(cc5nc(cc1[nH]2)C(C)=C5CCC(=O)O)c(CCC(=O)OC)c4C)[C@@]1(C)C3=CC=C(C(=O)OC)[C@H]1C(=O)OC (tested in a mixture with another compound) : call = ?
Reply: active

----------
# target: Ubiquitin carboxyl-terminal hydrolase 1 (Homo sapiens) (UniProt O94782)
# Sequence (O94782 whole entry, looked up): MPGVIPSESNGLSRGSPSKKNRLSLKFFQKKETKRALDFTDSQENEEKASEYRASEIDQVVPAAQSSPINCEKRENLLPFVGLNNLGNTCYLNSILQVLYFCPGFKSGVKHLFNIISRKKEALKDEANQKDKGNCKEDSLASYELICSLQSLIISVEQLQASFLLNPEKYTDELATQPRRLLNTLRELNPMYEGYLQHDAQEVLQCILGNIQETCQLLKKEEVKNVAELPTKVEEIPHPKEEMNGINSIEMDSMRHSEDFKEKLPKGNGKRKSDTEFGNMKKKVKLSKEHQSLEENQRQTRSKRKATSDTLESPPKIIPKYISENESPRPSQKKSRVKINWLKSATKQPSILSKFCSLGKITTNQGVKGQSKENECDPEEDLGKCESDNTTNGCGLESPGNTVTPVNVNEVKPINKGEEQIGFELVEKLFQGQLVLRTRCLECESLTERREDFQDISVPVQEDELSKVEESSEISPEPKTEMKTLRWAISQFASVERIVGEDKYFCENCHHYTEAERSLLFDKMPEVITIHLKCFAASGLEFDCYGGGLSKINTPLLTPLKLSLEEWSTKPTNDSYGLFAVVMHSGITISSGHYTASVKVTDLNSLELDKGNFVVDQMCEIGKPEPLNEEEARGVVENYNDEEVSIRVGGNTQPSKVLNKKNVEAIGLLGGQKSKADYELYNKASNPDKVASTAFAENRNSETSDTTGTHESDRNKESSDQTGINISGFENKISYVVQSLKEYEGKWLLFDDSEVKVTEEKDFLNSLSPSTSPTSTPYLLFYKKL
# procedure-summary: Inhibitors of USP1/UAF1: Pilot qHTS (AID 504865);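 also: rhodamine fluorescence freed from ubiquitin-rhodamine substrate followed over time; top concentration of the series differs between compounds; nearly all actives have a fitted effect of over 35% in size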
# condition-parameters: purified USP1/UAF1, Ub-rhodamine cleavage fluorescence; series mostly up to 114 µM
Inconclusive results are not listed. The source made the active and inactive calls. Calls follow the shape of the dose curve; as a rule, active = well fitted inhibition curve with a large enough effect; inconclusive = small, poorly fitted or top-dose-only effect; inactive = flat fitted curve, though single readings scatter.
measured-property: outcome

// below: answered molecules
NC(CCC(=O)N[C@@H](CS)C(=O)NCC(=O)O)C(=O)O (stereo partly specified): inactive
CC(C)CCCC(C)C1CCC2C3CC[C@H]4CC(=O)CC[C@@]4(C)C3CC[C@@]12C (stereo partly specified): inactive
C=CCSCC(N)C(=O)O (stereo unspecified): inactive
CC1(C)S[C@@H]2[C@H](NC(=O)C(N)c3ccccc3)C(=O)N2[C@H]1C(=O)O (stereo partly specified): inactive
C=CCSCC=C: inactive
CCC(/C=C/C(C)C1CCC2C3CCC4=CC(=O)CC[C@@]4(C)C3CC[C@@]12C)C(C)C (stereo partly specified): inactive
CC1(C)SC2C(NC(=O)C(N)c3ccccc3)C(=O)N2C1C(=O)O (stereo unspecified): inactive
CC1(C)CC2C1CC[C@]1(C)CCC3C(C(=O)O)CC(=O)O[C@]32C1 (stereo partly specified): inactive
CCOC(=O)c1c(C)cc(O)c(C)c1O: inactive
C[C@]12C=CC(=O)C=C1CC[C@@H]1[C@H]3C[C@@H](O)[C@](O)(C(=O)CO)[C@@]3(C)C[C@H](O)[C@]12F: inactive

Task item: Which outcome value is on record for CC(=O)O[C@]1(C)CC[C@]23CC1C(C)(C)C2CC[C@@H]3C (stereo partly specified) ?
Reply: inactive
